# System: UGT1A isoforms
# Format: in vitro ADME, human
# condition_set: across the UGT1A isoforms used (Tab.S1)
measurement_name: glucuronidation rate

Below, 4 compounds whose answers are already recorded.
COc1cc(O)c2c(=O)cc(-c3ccccc3)oc2c1 [5H7MF, 5-hydroxy-7-methoxyflavone]	≤ 0.9 nmol/mg/min
COc1ccc2c(=O)cc(-c3ccc(O)cc3)oc2c1 [4’H7MF, 4'-hydroxy-7-methoxyflavone]	≤ 0.9 nmol/mg/min
COc1cccc2oc(-c3ccc(O)cc3)cc(=O)c12 [4’H5MF, 4'-hydroxy-5-methoxyflavone]	≤ 0.9 nmol/mg/min
COc1ccc2oc(-c3ccc(O)cc3)cc(=O)c2c1 [4’H6MF, 4'-hydroxy-6-methoxyflavone]	≤ 0.9 nmol/mg/min

Endpoint output: glucuronidation rate of O=c1cc(-c2ccc(O)cc2)oc2cccc(O)c12 [5,4’DHF, 5,4'-dihydroxyflavone] . Value?
≤ 0.9 nmol/mg/min

Look up glucuronidation rate for this compound: O=c1cc(-c2ccc(O)cc2)oc2ccccc12 [4’HF, 4'-hydroxyflavone]
≤ 0.9 nmol/mg/min

Item under review: O=c1cc(-c2ccccc2)oc2cccc(O)c12 [5HF, 5-hydroxyflavone] . Reported glucuronidation rate?
≤ 0.9 nmol/mg/min

Consider the compound COc1cc(O)c2c(=O)cc(-c3ccc(O)cc3)oc2c1 [5,4’DH7MF, 5,4'-dihydroxy-7-methoxyflavone] and give its measured glucuronidation rate.
≤ 0.9 nmol/mg/min
